# experimental protocol: chemical genetic growth profiling, strain panel (AID 1159580);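 also: tested at 20 µM; growth read once vehicle control cultures reached saturation at 30 °C; 1 = growth at the plate median or of vehicle wells; lower values mean less growth of the strain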
# setup conditions: S. cerevisiae deletion strains, growth OD, locus YML120C, strain ndi1, stronger effect = lower value
Among all 5,500 compounds or so, about 2,000 (36%) were called active. Inconclusive results (about 18%) are left out. Some of the results follow.
Can you tell me normalized growth for the items I'm about to list?
Hey, just send me the number, nothing else.

Which normalized growth reading was recorded for the molecule CC(C(=O)O)c1cccc(C(=O)c2ccccc2)c1 (stereo not given) ?
0.994

Would you mind doing CC(C(=O)O)c1ccc(-c2ccccc2)c(F)c1 (stereo not given) as well?
0.996

Would you mind doing `Cc1[nH]c(C)c(Cl)c(=O)c1Cl` as well?
1.01

Would you mind doing `CCCCCCCCCCCCCCCC(=O)OC/C=C(C)/C=C/C=C(C)/C=C/C1=C(C)CCCC1(C)C` as well?
1.05

Would you mind doing `CC1=C(/C=C/C(C)=C/C=C/C(C)=C/C=C/C=C(C)/C=C/C=C(C)/C=C/C(=O)[C@]2(C)C[C@@H](O)CC2(C)C)C(C)(C)C[C@H](O)C1` as well?
0.986

Entry source: PubChem BioAssay AID1159580
